# assay_remarks: plasma and exudate concentrations of alpha-T, gamma-T and gamma-CEHC in the air-pouch model
# condition: 100 mg/kg
assay_readout: gamma-T concentration in exudate, corresponding molar concentration

INSERT INTO measurements (smiles_input, result) VALUES
  ('Cc1c(O)cc2c(c1C)O[C@](C)(CCC[C@H](C)CCC[C@H](C)CCCC(C)C)CC2', '~20 µM');

###

# assay_remarks: plasma and exudate concentrations of alpha-T, gamma-T and gamma-CEHC in the air-pouch model
# condition: 33 mg/kg
assay_readout: gamma-T concentration in exudate, corresponding molar concentration

INSERT INTO results (compound, result) VALUES
  ('Cc1c(O)cc2c(c1C)O[C@](C)(CCC[C@H](C)CCC[C@H](C)CCCC(C)C)CC2 [gamma-T, gamma-tocopherol]', '~10 µM');
